System: TRPC4 (mouse), co-expressed with 5HT1a in HEK293
Assay: enhancement of serotonin-evoked TRPC4 response – cell-based, second counter screen, HEK293 TRPC4/5HT1a, Fluo-4, counter-screen for TRPC4 potentiator project, confirmation (AID 434979)
Conditions: Fluo-4 calcium flux, at 10 µM, serotonin added at its EC20 dose
Calls of active or inactive are those of the source.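 Rule for the calls: active = signal rise over 3 SD above mean of control wells given weak agonist, in both repeats and first screen; inactive = the rest.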
Result category, one only: active, inactive

Please review the following examples before continuing.
CCCCn1c(NCCO)nc2ccccc21    inactive
Clc1ccc(-c2csc3ncnc(NCCN4CCOCC4)c23)cc1    inactive
CC(Nc1nc(N2CCNCC2)nc2ccccc12)c1ccccc1 (stereo unspecified)    inactive
CCN1CCN(c2ccc(S(=O)(=O)N3CCCCC3)cc2NC(=O)c2cccc(F)c2)CC1    active
CCOc1ccc(NC(=O)c2c[nH]n3c(=O)cc(C4CCN(C(=O)OC(C)(C)C)CC4)nc23)cc1    inactive

Test call, this compound: COC(=O)c1cccc2c1-c1ccccc1/C2=N/O
inactive

Please indicate how the test categorized O=C(C1CCN(CC2CC=CCC2)CC1)N(CCc1ccccc1)Cc1ccccc1 (stereo unspecified) .
inactive

Called result for COC(=O)CSc1nnc2n(-c3ccc(OC)cc3)c(=O)c3c4c(sc3n12)CCCCC4
inactive

Which outcome did this test record for the compound Cc1c(CN2CCC(n3nccc3NC(=O)CCc3ccccc3)CC2)cnn1C ?
inactive

Name the outcome recorded for COC(=O)CSc1nnc(-c2sc3cc(OC)ccc3c2Cl)n1C in the assay.
inactive

Write down the call the test reported for this compound. Item: N#Cc1ccc(-c2ccccc2)nc1SCCN1CCOCC1
active

All figures here come from PubChem BioAssay.
